- System name: T1, Human OSM (human, UniProt P13725 26-221)
- T1 construct: Recombinant human OSM; also called hOSM; human Oncostatin M
- T1 sequence: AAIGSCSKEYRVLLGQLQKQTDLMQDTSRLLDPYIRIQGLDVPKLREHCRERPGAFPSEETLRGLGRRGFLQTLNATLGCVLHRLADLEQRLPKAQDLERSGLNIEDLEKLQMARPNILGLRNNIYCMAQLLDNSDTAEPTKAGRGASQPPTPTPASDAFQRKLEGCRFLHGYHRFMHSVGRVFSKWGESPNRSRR
- Experimental details: BIAcore kinetics, transfection supernatant
kon overview
Measured metric: kon (M⁻¹ s⁻¹)

INSERT INTO assay_data (binder, measured_metric, readout_units, reported_measurement) VALUES
  ('Humanised 10G8 H0 IGHV3_23 + L1 IGKV1_5 (antibody, V domains shown, built from the stated exchange of CDRL2; residue limits derived by me) VH: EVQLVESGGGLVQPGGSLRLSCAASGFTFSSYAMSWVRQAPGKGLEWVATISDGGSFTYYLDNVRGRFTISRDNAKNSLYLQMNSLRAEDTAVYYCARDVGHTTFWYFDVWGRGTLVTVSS VL: DIVMTQSPDSLAVSLGERATINCRASKSVSAAGYNFMHWYQQKPGQPPKVLIYKASSLESGVPDRFSGSGSGTDFTLTISSLQAEDVAVYYCLHSREFPFTFGGGTKVEIK', 'kon', 'M⁻¹ s⁻¹', 71100),
  ('Humanised 10G8 H0L1(IGKV4-1) (antibody, V domains shown, built from the stated exchange of CDRL2; residue limits derived by me; Human gamma 1/kappa constant regions; also called H0L1(huCDRL2)) VH: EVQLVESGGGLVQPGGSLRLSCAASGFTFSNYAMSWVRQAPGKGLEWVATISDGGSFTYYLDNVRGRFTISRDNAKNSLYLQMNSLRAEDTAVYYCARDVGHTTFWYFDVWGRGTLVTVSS VL: DIVMTQSPDSLAVSLGERATINCRASKSVSAAGYNFMHWYQQKPGQPPKVLIYWASTRESGVPDRFSGSGSGTDFTLTISSLQAEDVAVYYCLHSREFPFTFGGGTKVEIK', 'kon', 'M⁻¹ s⁻¹', 161000),
  ('Humanised 10G8 H0L1 (antibody, human IgG1, kappa, V domains shown, IgG1 kappa; mature H0 heavy chain and mature L1 light chain; also called Humanised 10G8 H0L1 parent) VH: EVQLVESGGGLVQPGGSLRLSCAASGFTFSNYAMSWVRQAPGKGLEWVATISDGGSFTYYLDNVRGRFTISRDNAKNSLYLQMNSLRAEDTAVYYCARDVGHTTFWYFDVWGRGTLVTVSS VL: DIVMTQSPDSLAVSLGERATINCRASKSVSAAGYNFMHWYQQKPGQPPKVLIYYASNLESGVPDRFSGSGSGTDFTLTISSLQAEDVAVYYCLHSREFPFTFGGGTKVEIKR', 'kon', 'M⁻¹ s⁻¹', 332000),
  ('Humanised 10G8 H0 IGHV3_7 + L1 (antibody, V domains shown, built from the statement that the germline CDRH1 was exchanged for the mouse CDRH1 in H0; Human gamma 1/kappa constant regions) VH: EVQLVESGGGLVQPGGSLRLSCAASGFTFSSYWMSWVRQAPGKGLEWVATISDGGSFTYYLDNVRGRFTISRDNAKNSLYLQMNSLRAEDTAVYYCARDVGHTTFWYFDVWGRGTLVTVSS VL: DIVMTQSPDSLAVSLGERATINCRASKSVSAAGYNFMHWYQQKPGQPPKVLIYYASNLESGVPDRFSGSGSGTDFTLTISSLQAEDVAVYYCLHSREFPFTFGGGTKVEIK', 'kon', 'M⁻¹ s⁻¹', 91000);
